Origin of measurements: PubChem BioAssay

biological target: Calmodulin-1 (Homo sapiens) (UniProt P0DP23); assay: calcium-bound CALM1 binders on microarrays, profiling panel, artefact control for SMM control-protein annotation, biochemical, small-molecule microarray, Cy5-labelled CALM1, plus calcium (AID 1112); settings: Cy5-CALM1 binding fluorescence, higher = more signal;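 note: score merges spot fluorescence with signal to noise from triplicate slides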
For each record, write down the corresponding composite z-score.
Keep the answer to the number alone.

composite z-score for Calmodulin-1 (Homo sapiens) (UniProt P0DP23) with input COC(=O)[C@@]1(Cc2ccccc2)[C@H]2c3cc(C(=O)N4CCCC4)n(CCSCCO)c3C[C@H]2CN1C(=O)c1ccccc1 equals 1.29

Form: item COc1cc(C(O)C2C=CC3C(=O)N(Cc4ccccc4)C(=O)C3N2n2cnnc2)cc(OC)c1OC (centres undefined) ; test system Calmodulin-1 (Homo sapiens) (UniProt P0DP23); composite z-score: 0.0996

Readout composite z-score for C=C(/C(=C/C[C@@H](OC(C)=O)c1ccc(OCCO)cc1)c1cc(C(=O)OC)ccc1OC)C(C)C , test system Calmodulin-1 (Homo sapiens) (UniProt P0DP23), was -0.258

Summary: CC1CC/C=C\[C@H]2OC34C=CCN(CCN5CCOCC5)C(=O)[C@H]3N(C(C)CO)C(=O)[C@@H]4C2C(=O)O1 (some centres undefined) , Calmodulin-1 (Homo sapiens) (UniProt P0DP23), composite z-score = -1.4

O=C(O)[C@H]1C[C@H]2C(=O)N[C@@H](Cc3ccccc3)C(=O)N2[C@H]1c1cccc(OCCO)c1 on Calmodulin-1 (Homo sapiens) (UniProt P0DP23) gives composite z-score = -0.411

Reported composite z-score (Calmodulin-1 (Homo sapiens) (UniProt P0DP23)) for entry CCCNC(=O)[C@@]1(Sc2ccc(C)cc2)CC(=O)N(C2CCCCC2)[C@@H]1c1ccc(CO)cc1I is 0.86

Noted composite z-score for C=CCN1C(=O)[C@]2(O[C@H](CCO)[C@@H]([Si](C)(C)c3ccc(OC)cc3)[C@@H]2C)c2cc(NC(=O)c3ccc(OC)cc3)ccc21 , tested on Calmodulin-1 (Homo sapiens) (UniProt P0DP23): 0.631

Value sought: composite z-score, system Calmodulin-1 (Homo sapiens) (UniProt P0DP23), item COCCOC(=O)N1C(=O)[C@@]2(c3cc(C#CC4(O)CCCCCC4)ccc31)[C@H](C(=O)N1CCN(c3ncccn3)CC1)[C@H]1C(=O)O[C@H](c3ccccc3)[C@H](c3ccccc3)N1[C@@H]2c1ccccc1OCCO . Result: 0.0618

Summary line: [N-]=[N+]=Nc1ccccc1C[C@]1(C(=O)O)N=C(c2ccc(OCCCO)cc2)O[C@H]1c1ccccc1 , Calmodulin-1 (Homo sapiens) (UniProt P0DP23), reported composite z-score = 0.943

Measured on Calmodulin-1 (Homo sapiens) (UniProt P0DP23), COCCOC(=O)N1C(=O)[C@@]2(c3cc(C#Cc4ccc(OC)cc4)ccc31)[C@H](c1ccc(OCCO)cc1)N1[C@H](c3ccccc3)[C@H](c3ccccc3)OC(=O)[C@H]1[C@@H]2C(=O)Nc1nc2ccccc2s1 has a documented composite z-score of 0.487

Lab note: compound COc1cc(NN2C(C(O)C3CCCCC3)C=CC3C(=O)N(c4ccccc4)C(=O)C32)cc(OC)c1OC (centres undefined) tested on Calmodulin-1 (Homo sapiens) (UniProt P0DP23); recorded composite z-score was 1.23

Form field composite z-score for item CN(C)C(=O)[C@]1(CCS(=O)(=O)c2ccccc2)N=C(c2ccc(OCCCO)cc2)O[C@@H]1c1ccccc1 on Calmodulin-1 (Homo sapiens) (UniProt P0DP23): 0.513

For C=CCC(OC(C)=O)[C@@H]1[C@@H](N(Cc2ccc(-c3cccc(C(F)(F)F)c3)o2)C(=O)c2cccc3ccccc23)c2cc(OCCCO)ccc2N1C(=O)Cc1ccc(OC)cc1 (some centres undefined) on Calmodulin-1 (Homo sapiens) (UniProt P0DP23), measured composite z-score was -0.738

Calmodulin-1 (Homo sapiens) (UniProt P0DP23) assay, compound Cc1ccccc1C(O)C1C=CC2C(=O)NC(=O)C2N1Nc1ccc(Cl)cc1Cl (centres undefined) , recorded composite z-score = 1.13
